# Test system: L1210 leukemia ip in BDF1 mice, survival T/C
# assay_remarks: NCI In Vivo Anticancer Drug Screen. Data for tumor model L1210 Leukemia (intraperitoneal) in B6D2F1 (BDF1) mice
# measurement_parameters: endpoint: mean survival time; dose: 100.0 mg/kg/injection; schedule: Q01DX001 (ip); vehicle: saline with Tween-80; higher = longer survival
Inconclusive results and toxic doses are left out.

{"mol_smiles": "Cc1nc(N)[nH]c(=O)c1CCCNCc1ccccn1", "T/C": "93 % of control"}
{"mol_smiles": "O=C1C2C=CC=CC1C1C=CC2C1", "T/C": "93 % of control"}
{"mol_smiles": "COc1nsc(N)n1", "T/C": "100 % of control"}
{"mol_smiles": "C/C=C/C(=O)Nc1cc(C(F)(F)F)ccc1Cl", "T/C": "98 % of control"}
{"mol_smiles": "O=[N+]([O-])c1ccc(N/N=C/c2ccc(N(CCO)CCO)cc2)c([N+](=O)[O-])c1", "T/C": "98 % of control"}
{"mol_smiles": "Cc1ccc(Cl)cc1NC(=O)Nc1cccc2ccc(O)cc12", "T/C": "95 % of control"}
{"mol_smiles": "IC#Cc1ccccc1", "T/C": "112 % of control"}
{"mol_smiles": "CCCCCCCCCCCCCCCCCCOc1cccc(C(F)(F)F)c1", "T/C": "89 % of control"}
{"mol_smiles": "C(Cc1ccccc1)=C(CCc1ccccc1)CCc1ccccc1", "T/C": "104 % of control"}
